The origin of these recorded values is PubChem BioAssay (NCI).

# Test system: OVCAR-8 ovarian
# test-details: NCI-60 one-dose screen, 48 h
# particulars: 10 µM unless noted
Compounds without any hit were thinned out: in the full panel of roughly 83,000, 20% have a hit. The source made the active and inactive calls. Rule for the calls: active = growth percent below 10; inactive = the rest.
Entry note: the call must match one of class 1 for active, class 0 for inactive

# compound, category
records = [
    ("CCNC(=O)N1CCc2cc(OC)c(OCCc3ccc(OC)c(N)c3)cc2C1c1ccc(C)cc1C (stereo unspecified)", "class 0"),
    ("NC(N)=Nc1ccc(Oc2cccc(Nc3ccc(Cl)cc3)c2)cn1", "class 0"),
    ("NC(=O)c1c(NC(=O)c2ccc(F)cc2F)sc2c1CCC(=O)C2", "class 0"),
    ("COc1c(N2CC3CCCNC3C2)c(F)cc2c(=O)c(C(=O)N/N=C/c3ccc(F)cc3)cn(C3CC3)c12 (stereo unspecified)", "class 0"),
]

Enquiry: Field: outcome | Entry: NS(=O)(=O)c1ccc(Nc2nc(N/N=C/CCc3ccccc3)nc(Nc3ccccc3)n2)cc1
Return: class 0

Enquiry: Field: outcome | Entry: COc1cc2nc(Cl)nc(Nc3cccc(C4=Nc5c(N)nc(N)nc5NC(c5ccc(Cl)cc5)C4)c3)c2cc1OC (stereo unspecified)
Return: class 0

Enquiry: Field: outcome | Entry: C=C=COc1cccc(/C(N)=N/C(N)=N/c2nc3ccccc3s2)c1
Return: class 0
